FYI, the data here is from ChEMBL document CHEMBL1138326.

- Organism: Homo sapiens
- Experiment: Selectivity for human COX2 over human COX1
Each record here notes measured Ratio IC50.
Just the number, please.

Smiles str: COc1ccc2c(c1)c(CCNC(=O)NCCCO[N+](=O)[O-])c(C)n2C(=O)c1ccc(Cl)cc1
Ratio IC50: 0.3

Exam item: Sample "COc1cc2c(CC(=O)O)c(C)n(C(=O)c3ccc(Cl)cc3)c2cc1Cl" — what was its Ratio IC50?
Marked response: 0.4

Exam item: Record: "COc1ccc2c(c1)c(CCNS(=O)(=O)CCCO)c(C)n2C(=O)c1ccc(Cl)cc1"
Marked response: 3.5

Exam item: Another molecule to check: "COc1ccc2c(c1)c(CC(=O)NCCCO[N+](=O)[O-])c(C)n2C(=O)c1ccc(Cl)cc1"
Marked response: 5

Exam item: Now try "COc1ccc2c(c1)c(CC(=O)NCCCCO)c(C)n2C(=O)c1ccc(Cl)cc1" .
Marked response: 2

---

- Target of assay: Prostaglandin G/H synthase 1 (Homo sapiens, UniProt P23219)
- Sequence (P23219 whole entry): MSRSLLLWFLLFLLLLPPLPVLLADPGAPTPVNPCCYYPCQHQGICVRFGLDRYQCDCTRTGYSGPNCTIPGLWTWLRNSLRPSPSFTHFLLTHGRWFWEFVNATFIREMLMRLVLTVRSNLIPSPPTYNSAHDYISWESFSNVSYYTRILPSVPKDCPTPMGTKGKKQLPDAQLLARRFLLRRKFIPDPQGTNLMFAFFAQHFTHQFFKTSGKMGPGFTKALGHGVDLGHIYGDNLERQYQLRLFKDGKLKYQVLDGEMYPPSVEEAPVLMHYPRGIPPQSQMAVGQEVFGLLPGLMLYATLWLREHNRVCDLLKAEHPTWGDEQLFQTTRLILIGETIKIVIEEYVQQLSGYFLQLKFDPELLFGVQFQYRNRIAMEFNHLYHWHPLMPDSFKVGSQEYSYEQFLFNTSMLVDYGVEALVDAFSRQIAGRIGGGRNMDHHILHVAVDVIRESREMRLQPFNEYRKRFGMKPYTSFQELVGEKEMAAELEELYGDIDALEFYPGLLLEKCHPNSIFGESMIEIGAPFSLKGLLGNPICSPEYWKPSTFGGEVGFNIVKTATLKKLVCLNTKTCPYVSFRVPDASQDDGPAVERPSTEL
- Experiment: Inhibition of COX1 in human whole blood assessed as effect on A23187-induced thromboxane B2 production
- Type: tissue-based
Experimental readout: IC50

The examples below pair each entry with its known result.
Smiles str: COc1cc2c(CC(=O)OCc3ccccc3)c(C)n(C(=O)c3ccc(Cl)cc3)c2cc1Cl
Result: > 100 µM

Smiles str: COc1ccc2c(c1Cl)c(CC(=O)OCc1ccccc1)c(C)n2C(=O)c1ccc(Cl)cc1
Result: > 100 µM

Smiles str: COc1ccc2c(c1)c(CC(=O)NOCCCO)c(C)n2C(=O)c1ccc(Cl)cc1
Result: < 0.3 µM

Exam item: I'm curious: which IC50 was measured for "COc1ccc2c(c1)c(CC(=O)N(OC(C)=O)C(C)=O)c(C)n2C(=O)c1ccc(Cl)cc1" tested on Prostaglandin G/H synthase 1 (Homo sapiens, UniProt P23219)?
Marked response: < 1 µM

Exam item: Now consider "COc1ccc2c(c1)c(CCN)c(C)n2C(=O)c1ccc(Cl)cc1" and answer again.
Marked response: > 10 µM

Exam item: What do we get for "COc1ccc2c(c1)c(CC(=O)NOCc1ccccc1)c(C)n2C(=O)c1ccc(Cl)cc1" ?
Marked response: < 0.3 µM

Exam item: Follow-up entry: "COc1ccc2c(c1)c(CC(=O)NOCCO)c(C)n2C(=O)c1ccc(Cl)cc1"
Marked response: < 1 µM

Exam item: Let us now turn to "COc1ccc2c(c1)c(CCNC(=O)c1ccc(CO[N+](=O)[O-])cc1)c(C)n2C(=O)c1ccc(Cl)cc1"
Marked response: < 1 µM
